Cited source: paper PMC7071106

System: Giardia duodenalis
RUN_DESCRIPTION: In vitro giardicidal susceptibility assay (trophozoite growth inhibition)
Assay type: cell-based, Giardia duodenalis (G. intestinalis strain IMSS:0696:1)
APPLIED_CONDITIONS: trophozoites, 48 h incubation then 48 h subculture; means of three experiments; read-out: IC50 G. duodenalis
Experimental: G. intestinalis strain IMSS:0696:1 and T. vaginalis strain GT3 were cultured in TYI-S-33 medium, complemented with 10% calf serum and bovine bile. […] Subsequently, trophozoites were washed and subcultured for another 48 h in fresh medium without any drugs. Once this time was reached, trophozoites were counted and the median inhibitory concentration (IC50) was calculated. All the experiments were completed in triplicate.
MEASUREMENT_TYPE: IC50 (nM)
Just the number please, in nM, no unit attached.

Supply IC50 value. Item: Cc1ncc([N+](=O)[O-])n1CCOC(=O)Nc1ccccc1
980

----------
Listed below: melting point values for each entry.

Illustrative cases are given below, each with its answer.
{"MOLECULE": "Cc1ncc([N+](=O)[O-])n1CC(C)OC(=O)NC1CCCCC1 (centres unmarked) [Compound 6]", "MEASUREMENT_TYPE": "melting point", "REPORTED_MEASUREMENT": "219.2 to 222.7 °C"}
{"MOLECULE": "Cc1ncc([N+](=O)[O-])n1CC(C)OC(=O)Nc1ccc(Cl)cc1 (centres unmarked) [Compound 8]", "MEASUREMENT_TYPE": "melting point", "REPORTED_MEASUREMENT": "268.1 °C (dec.)"}
{"MOLECULE": "Cc1ncc([N+](=O)[O-])n1CC(C)OC(=O)Nc1ccc([N+](=O)[O-])cc1 (centres unmarked) [Compound 10]", "MEASUREMENT_TYPE": "melting point", "REPORTED_MEASUREMENT": "235.4 °C (dec.)"}
{"MOLECULE": "Cc1ncc([N+](=O)[O-])n1CC(C)OC(=O)Nc1ccc(F)cc1 (centres unmarked) [Compound 9]", "MEASUREMENT_TYPE": "melting point", "REPORTED_MEASUREMENT": "162.3 to 163.5 °C"}

Continue with the molecule presented below.
Tell me its melting point given Cc1ncc([N+](=O)[O-])n1CC(C)OC(=O)Nc1ccccc1 (centres unmarked) [Compound 7] as the entry.
238.9 to 240.5 °C

----------
System: Giardia duodenalis
RUN_DESCRIPTION: In vitro giardicidal susceptibility assay (trophozoite growth inhibition)
Assay type: cell-based, Giardia duodenalis (G. intestinalis strain IMSS:0696:1)
APPLIED_CONDITIONS: CC50 VERO cells / IC50 G. duodenalis
MEASUREMENT_TYPE: SI = CC50/IC50 G. duodenalis

{"COMPOUND": "Cc1ncc([N+](=O)[O-])n1CCOC(=O)Nc1ccc([N+](=O)[O-])cc1", "TARGET_OR_TEST_SYSTEM": "Giardia duodenalis", "SI = CC50/IC50 G. duodenalis": ">41"}
{"COMPOUND": "Cc1ncc([N+](=O)[O-])n1CC(C)O (centres unmarked) [Secnidazole, secnidazole, reference compound]", "TARGET_OR_TEST_SYSTEM": "Giardia duodenalis", "SI = CC50/IC50 G. duodenalis": ">24"}
{"COMPOUND": "Cc1ncc([N+](=O)[O-])n1CC(C)OC(=O)Nc1ccc(Cl)cc1 (centres unmarked)", "TARGET_OR_TEST_SYSTEM": "Giardia duodenalis", "SI = CC50/IC50 G. duodenalis": ">24"}
{"COMPOUND": "Cc1ncc([N+](=O)[O-])n1CCOC(=O)Nc1ccc(F)cc1", "TARGET_OR_TEST_SYSTEM": "Giardia duodenalis", "SI = CC50/IC50 G. duodenalis": ">49"}
{"COMPOUND": "Cc1ncc([N+](=O)[O-])n1CC(C)OC(=O)NC1CCCCC1 (centres unmarked)", "TARGET_OR_TEST_SYSTEM": "Giardia duodenalis", "SI = CC50/IC50 G. duodenalis": ">37"}
{"COMPOUND": "Cc1ncc([N+](=O)[O-])n1CCOC(=O)Nc1ccccc1", "TARGET_OR_TEST_SYSTEM": "Giardia duodenalis", "SI = CC50/IC50 G. duodenalis": ">102"}

Please look at Cc1ncc([N+](=O)[O-])n1CC(C)OC(=O)Nc1ccc(F)cc1 (centres unmarked) and tell me its recorded SI = CC50/IC50 G. duodenalis on Giardia duodenalis.
>30

Determine reported SI = CC50/IC50 G. duodenalis for Cc1ncc([N+](=O)[O-])n1CCOC(=O)Nc1ccc(Cl)cc1 ; test system: Giardia duodenalis.
>87
